Target: IL-12 (human, p35/p40 heterodimer) (Homo sapiens, UniProt P29459;P29460 SEQ:57-253,SEQ:23-328)
Sequence (P29459 23-219, chain 1 of 2): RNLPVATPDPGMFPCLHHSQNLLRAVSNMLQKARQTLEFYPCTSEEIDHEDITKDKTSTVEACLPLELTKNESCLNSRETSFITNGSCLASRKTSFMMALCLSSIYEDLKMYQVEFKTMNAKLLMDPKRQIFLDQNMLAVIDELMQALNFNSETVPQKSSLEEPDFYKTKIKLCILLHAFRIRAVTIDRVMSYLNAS
Sequence (P29460 23-328, chain 2 of 2): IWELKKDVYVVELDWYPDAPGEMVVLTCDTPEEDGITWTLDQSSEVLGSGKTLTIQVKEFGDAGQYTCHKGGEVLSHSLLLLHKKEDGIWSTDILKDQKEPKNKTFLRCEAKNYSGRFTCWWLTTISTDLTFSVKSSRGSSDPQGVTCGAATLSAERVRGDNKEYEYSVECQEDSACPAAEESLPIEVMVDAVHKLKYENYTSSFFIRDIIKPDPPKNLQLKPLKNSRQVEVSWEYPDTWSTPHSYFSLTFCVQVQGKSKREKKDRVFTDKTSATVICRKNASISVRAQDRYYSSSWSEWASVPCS
Assay: filter; no significant binding
endpoint: binding result

AMX91-E3 (ssRNA, 2'-F C,U) RNA: GGGAAAAGCGAAUCAUACACAAGAUUACUCCGUUAGUGUCAGUUGACGGAGGGAGCGUACUAUUGCUCCGCCAGAGACCAACCGAGAA = no binding
AMX91-G11 (ssRNA, 2'-F C,U) RNA: GGGAAAAGCGAAUCAUACACAAGACUUAACAGUGCGGGGCGCAGUGUAUAGAUCCGCAAUGUGUGCUCCGCCAGAGACCAACCGAGAA = no binding
AMX86-D8 (ssRNA, 2'-F C,U) RNA: GGGAAAAGCGAAUCAUACACAAGACAGAGGCAAUGAGAGCCUGGCGAUGUCAGUCGCAUCUUGCUGCUCCGCCAGAGACCAACCGAGAA = no binding
